# TEST DETAILS: label from the status in PepcDB records
OBSERVATION TYPE: protein production

INSERT INTO assay_data (record_sequence, result) VALUES
  ('MVCFASLFEEVSMHTCPLCHNQHTRHYFEDKHREYLQCEQCYLVFVNPDQRLDAETEKAHYDLHENNPEDIGYRRFLSRIADPITERISPQSNGIDFGCGPGPTLSLMLEEAGHNMALYDIYYHPDTAVLEKQYDFMTATEVIEHLYHPDVVWKQWLNLVKPGGWIGLMTKMVIDVEAFKSWHYKNDPTHVVFFSRDTFQFLAERDKLELEFIGNDVILLRKTQLEHHHHHH', 'not failed'),
  ('MGIRVKRRQHQHLLESLVHSTAKQQGDFTKTAELATELLCQNLAVSLVSIWIFSADQGTQSLVAQFGSMALQDTYRPSLLHTVPRYLNELKNYRHIDAGNTLIDPRLTELVDSYFIPRQILSSLDVGIRINGHLEGVLCIERAQVTHHWHDSEIHLACQMADQLALTLATKHAYLEHHHHHH', 'failed'),
  ('LAELFEKAAAHLQGLIQVASREQLLYLYARYKQVKVGNCNTPKPSFFDFEGKQKWEAWKALGDSSPSQAMQEYIAVVKKLDPGWNPQIPEKKGKEA', 'not failed'),
  ('NGQAITLASKHYGSVNSAADLKGMVLGIPFEYSVHALLLRDYLVSNAVDPIADLELRLLRPADMVAQLTVEGIDGFIGPGPFNERAISNGSGRIWLLTKQLWDKHPCCAVAMAKEWKAEHPTAAQGVLNALEEASAILSNPA', 'failed'),
  ('MSKARKTAASSGEPDFWRVARDWLHHWLPKVRGSSPKTVEAYRIGLESYVRWLETTEGTQRSHIGFGHFDRARLGRWVEWMRTERGYSDRTIMLRMTTMRVFLDHAGLEHPALTALGNDAAGIRVKPPARKPVDHLGEEHTKALLTAWGTGDAKSRRNRMLLILMYDTAARIGELAALTIADVGMDKPARVTLTGKRGKSRVVPLGERTRTHLAAYLEEFHPGPSMRDGDRPLFHSTRNGAIQPLSVDRIDEILKTAAARARRGTCPSMPERVHCHLIRRTRAMDLYQQGVPLPLIMQLLGHESMSTTSAFYAFATLDMMRKAVDAANPGPDPSKETWLSEQRLRQLHTLK', 'failed'),
  ('MTSLEEITKAIMADSQNKVFTEKNIEPLFAAPKTARINIVGQAPGIKAQESRLYWNDKSGDRLREWMGVDYDTFYHSGYFAVIPMDFYYPGKGKSGDLPPRKGFAQKWHQPILDLLPDIQLTILIGNYAQKYYLHQKSSVKLTDTVAHYKKYLPDYFPLVHPSPRNQIWMSRHPWFEAQVVPDLKKIIQQIIQSS', 'not failed');

Please find the next sequence below.
[Q] Reported protein production, sequence AQTDPSQLKKEGSDAFNAKNYPVAYAKFSEYLKQTNNQDSAIAYYCGMAADEVKKYAEAVTFFDIAIQKKFNIGNAYARKALALDAMKKTDEYVATLEEGLKVDPDNKTMIKNYGLHYLKAGIAAQKAGKVEEAEECFKKVIPLDHKTYKTNALYSLGVLCYNDGANILKKAAPLANSDADKYAAEKEKADGRFKEAIGYLEEATKVSPEDTKSKTMLSQVQAAMK : ____
[A] not failed
